system: Leishmania chagasi; assay: Antileishmanial activity against amastigotes of Leishmania chagasi MHOM/BR/1972/LD after 24 hrs by MTT assay; type: functional, organism-based
VALUE_TYPE: IC50 (µM)
Your answer is read as µM, so omit the unit and give the number.

Checklist item: IC50 tested on Leishmania chagasi, entry MEGLUMINE ANTIMONATE , value?
82.3

* * *

test system: LLC-MK2; assay: Cytotoxicity against rhesus monkey LLC-MK2 cells after 48 hrs by MTT assay; assay type: cell-based, Macaca mulatta; details: llc-mk2
pIC50: −log10 of the molar value.
VALUE_TYPE: pIC50

What reported pIC50 corresponds to MEGLUMINE ANTIMONATE on LLC-MK2?
< 2.86

* * *

tested on: Trypanosoma cruzi; test: Antitrypanosomal activity against trypomastigotes of Trypanosoma cruzi infected in rhesus monkey LLC-MK2 cells after 48 hrs by MTT assay; type: functional, organism-based; settings: LLC-MK2, 48 h
Overview of reported IC50 across a group of compounds:
Output spec: scalar in µM, unitless text.

Quick check: IC50 of CC1=C(C(=O)OC(C)C)C(c2cccc([N+](=O)[O-])c2)C(C(=O)OC2CN(C(c3ccccc3)c3ccccc3)C2)=C(N)N1 (stereo not drawn) [AZELNIDIPINE] ?
2.9

Record request: IC50 value, item CCOC(=O)C1=C(C)NC(C)=C(C(=O)OC)C1c1cccc([N+](=O)[O-])c1 (stereo not drawn) [NITRENDIPINE]
26.9

New cases:
Which IC50 is listed for COC(=O)C1=C(C)NC(C)=C(C(=O)OC(C)(C)CN(C)CCC(c2ccccc2)c2ccccc2)C1c1cccc([N+](=O)[O-])c1 (stereo not drawn) [LERCANIDIPINE] ?
8.43
